Cited source: patent US20190298664A1

# targetOfAssay: PTP-PEST catalytic domain (Homo sapiens)
# Construct: PTP PEST Catalytic Domain construct (Amino Acid:1-300) with 6 His tag at N-terminal; 6 His (N, cleaved yes); made in house; host or cells: Sf9 insect cells (Sf9-VECL-01), Bac-to-Bac baculovirus system
# experimentSummary: IC50 kinetic assay: phosphatase activity of purified PTP-PEST catalytic domain with phospho-Paxillin peptide substrate
# Assay type: biochemical
# measurementParameters: read-out: IC50 of the auranofin to the PTP-PEST; as restated in the summary
property: IC50 (µM)
Answer format: numeric, µM implied, no suffix.

Query: What does the data say about its IC50? Entry: CC(=O)OC[C@H]1O[C@@H]([S-])[C@H](OC(C)=O)[C@@H](OC(C)=O)[C@@H]1OC(C)=O.CCP(CC)CC.[Au+]
Reply: 38.7

###

# targetOfAssay: PTP-PEST catalytic domain (Homo sapiens, UniProt Q05209)
# Construct: PTP PEST Catalytic Domain construct (Amino Acid:1-300) with 6 His tag at N-terminal; 6 His (N, cleaved yes); made in house; host or cells: Sf9 insect cells (Sf9-VECL-01), Bac-to-Bac baculovirus system
# Sequence (Q05209 1-300, species assumed): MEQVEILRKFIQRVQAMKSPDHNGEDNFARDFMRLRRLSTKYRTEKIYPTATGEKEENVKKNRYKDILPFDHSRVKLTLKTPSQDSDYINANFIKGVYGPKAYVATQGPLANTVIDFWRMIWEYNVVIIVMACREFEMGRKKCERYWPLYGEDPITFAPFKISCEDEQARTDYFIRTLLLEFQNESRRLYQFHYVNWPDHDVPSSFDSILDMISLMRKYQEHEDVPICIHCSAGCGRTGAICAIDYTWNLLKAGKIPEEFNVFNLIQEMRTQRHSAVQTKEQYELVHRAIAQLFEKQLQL
# experimentSummary: IC50 kinetic assay: phosphatase activity of purified PTP-PEST catalytic domain with phospho-Paxillin peptide substrate
# Assay type: biochemical
# measurementParameters: synthetic phospho-Paxillin peptide as substrate; 25 nM protein, 50 μM peptide, 30° C., 30 min; read-out: IC50 on enzymatic activity of purified PTP-PEST
property: pIC50
Interpret pIC50 as the negative base-10 log of the concentration measured in mol/L.

Query: What does the data say about its pIC50? Entry: CC(=O)OC[C@H]1O[C@@H]([S-])[C@H](OC(C)=O)[C@@H](OC(C)=O)[C@@H]1OC(C)=O.CCP(CC)CC.[Au+] [Auranofin, auranofin]
Reply: 4.41
